# key: entry, value: relative IC50
# System: BT-474
# TEST_DETAILS: relative IC50 (midpoint of fitted logistic curve, plateau may be below 50% inhibition; CellTiter-Glo viability); higher = less potent
# STUDY_CONDITIONS: 4-OH-tamoxifen in medium 0 µM; 72 h
Structures can show the parent of a compound that is named as a salt.

Worked cases, relative IC50 given:
Request: Param item = CN(C)C[C@@H]1CCn2cc(c3ccccc32)C2=C(C(=O)NC2=O)c2cn(c3ccccc23)CCO1 ; retrieve measured relative IC50.
Result: 3.26 µM

Request: And for NCC(=O)CCC(=O)O [Aminolevulinic acid] ?
Result: > 10 µM

Request: And for CN[C@@H]1C[C@H]2O[C@@](C)([C@@H]1OC)n1c3ccccc3c3c4c(c5c6ccccc6n2c5c31)C(=O)N[C@H]4O [UCN-01] ?
Result: 0.467 µM

Request: And for Cc1ccc([N+](=O)[O-])cc1S(=O)(=O)N(C)/N=C/c1cnc2ccc(Br)cn12 [PIK-75 (HCl)] ?
Result: 0.148 µM

Request: And for Cc1sc2c(c1C)C(c1ccc(Cl)cc1)=N[C@@H](CC(=O)OC(C)(C)C)c1nnc(C)n1-2 [(+)JQ1] ?
Result: 0.136 µM

Request: And for O=C(O)CC[C@H]1CC[C@@](c2cc(F)ccc2F)(S(=O)(=O)c2ccc(Cl)cc2)CC1 [MK-0752] ?
Result: > 1 µM

More entries:
Request: Param item = C[C@]1(c2nc3c(C(N)=O)cccc3[nH]2)CCCN1 [Veliparib (ABT-888)] ; retrieve measured relative IC50.
Result: > 10 µM

Request: And for CNNCc1ccc(C(=O)NC(C)C)cc1 [Procarbazine] ?
Result: > 10 µM

Request: And for COC1=C2C[C@@H](C)C[C@H](OC)[C@H](O)[C@@H](C)/C=C(\C)[C@H](OC(N)=O)[C@@H](OC)/C=C\C=C(/C)C(=O)NC(=CC1=O)C2=O [Geldanamycin] ?
Result: 0.563 µM

Request: And for O=C(CCBr)N1CCN(C(=O)CCBr)CC1 [Pipobroman] ?
Result: > 10 µM

Request: And for COc1cc(CCc2cc(NC(=O)c3ccc(N4CC(C)NC(C)C4)cc3)n[nH]2)cc(OC)c1 (configuration not stated) [AZD4547] ?
Result: > 1 µM

Request: And for N#CC[C@H](C1CCCC1)n1cc(-c2ncnc3[nH]ccc23)cn1 ?
Result: > 10 µM

Request: And for CC(C)C[C@H](NC(=O)[C@H](Cc1ccccc1)NC(=O)c1cnccn1)B(O)O [Bortezomib] ?
Result: 0.0127 µM

Request: And for Cn1cc(C2=C(c3cn(C4CCN(Cc5ccccn5)CC4)c4ccccc34)C(=O)NC2=O)c2ccccc21 [Enzastaurin] ?
Result: > 10 µM

Request: And for CC[C@@]1(O)C(=O)OCc2c1cc1n(c2=O)Cc2cc3c(CN(C)C)c(O)ccc3nc2-1 [Topotecan] ?
Result: > 1 µM

Request: And for Cn1nnc2c(C(N)=O)ncn2c1=O [Temozolomide] ?
Result: > 10 µM

Request: And for Cc1cccc(-c2nn3c(c2-c2ccnc4ccc(C(N)=O)cc24)CCC3)n1 ?
Result: > 1 µM

Source of measurements: the supplement of paper PMC4932681
